The reported numbers originate from PubChem BioAssay AID2060893.

- Tested on: K86415-001-R-J1-PDC complex spheroids, viability;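 note: spheroids exposed to agents for seven days before readout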
- assay_info: Anticancer human tumor K86415-001-R-J1-PDC patient-derived lung adenocarcinoma cell line growth inhibition [RAS]
- test_settings: second compound 10 µM; first compound 0.1 µM; active compounds read low
property_measured: viability, T/C (%)
Answers are plain numbers, in %.

CC(C)NCC(C(=O)N1CCN(c2ncnc3c2C(C)CC3O)CC1)c1ccc(Cl)cc1 (centres undefined) + C#Cc1c(F)ccc2cc(O)cc(-c3ncc4c(N5CC6CCC(C5)N6)nc(OCC56CCCN5CC(F)C6)nc4c3F)c12 :: 15.8

Each molecule below has a reported value. Please supply its viability, T/C.
1. C=CC(=O)N1CCN(c2nc(OCC3CCCN3C)nc3c(F)c(-c4nc(N)cc(C)c4C(F)(F)F)c(Cl)cc23)C(C)C1 (centres undefined) + C#Cc1c(F)ccc2cc(O)cc(-c3ncc4c(N5CC6CCC(C5)N6)nc(OCC56CCCN5CC(F)C6)nc4c3F)c12
2. CC1(O)CCCC1n1c(=O)c(C(F)F)cc2cnc(NC3CCN(S(C)(=O)=O)CC3)nc21 (centres undefined) + C#Cc1c(F)ccc2cc(O)cc(-c3ncc4c(N5CC6CCC(C5)N6)nc(OCC56CCCN5CC(F)C6)nc4c3F)c12

1. 9.94
2. 16.1

Which measured viability, T/C value corresponds to C[C@@H](NC(=O)c1ncnc(N)c1Cl)c1ncc(C(=O)Nc2cc(C(F)(F)F)c(Cl)cn2)s1 + C#Cc1c(F)ccc2cc(O)cc(-c3ncc4c(N5CC6CCC(C5)N6)nc(OCC56CCCN5CC(F)C6)nc4c3F)c12 ?
26
